These data points were gathered from the supplement of paper PMC7125110.

B1: glmS ribozyme (parent)
chain: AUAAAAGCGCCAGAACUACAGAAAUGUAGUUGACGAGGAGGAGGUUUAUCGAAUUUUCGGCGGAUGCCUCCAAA

Variants of: B1
EXPERIMENTAL_DETAILS: self-cleavage kobs at 40 uM GlcN6P; higher = faster cleavage; RNA array
PARTICULARS: with glucosamine-6-phosphate
Fewer inactive variants are shown than the library holds.
Below, each entry is listed with its recorded self-cleavage kobs at 40 uM GlcN6P.
READOUT_TYPE: self-cleavage kobs at 40 uM GlcN6P

>>> meas_value("C11U G13C A52U C70U")
"< 1e-05 s⁻¹"
>>> meas_value("U47A C71G")
"2.61e-05 s⁻¹"
>>> meas_value("G13A A39U C61U")
"< 1e-05 s⁻¹"
>>> meas_value("G7U G35C")
"< 1e-05 s⁻¹"
>>> meas_value("A33U C68U")
"< 1e-05 s⁻¹"
>>> meas_value("C10G G59U")
"< 1e-05 s⁻¹"
>>> meas_value("A12U A39U U54C")
"0.000713 s⁻¹"
>>> meas_value("U30A A39U G63U")
"< 1e-05 s⁻¹"
>>> meas_value("G37C A64C C68U")
"< 1e-05 s⁻¹"
>>> meas_value("A15C A33C A64U")
"< 1e-05 s⁻¹"
>>> meas_value("G9A U56G")
"< 1e-05 s⁻¹"
>>> meas_value("G7U C10U G13C A52G")
"< 1e-05 s⁻¹"
>>> meas_value("C10G G37U A42C")
"< 1e-05 s⁻¹"
>>> meas_value("A33U A53U A64U")
"< 1e-05 s⁻¹"
>>> meas_value("G41A G43C G62U")
"< 1e-05 s⁻¹"
>>> meas_value("U47C U54A")
"0.000112 s⁻¹"
>>> meas_value("C8U G62A")
"< 1e-05 s⁻¹"
>>> meas_value("C10U C16U U47C U65C")
"< 1e-05 s⁻¹"
>>> meas_value("G7A C67G")
"< 1e-05 s⁻¹"
>>> meas_value("G40A C71U")
"0.000981 s⁻¹"
>>> meas_value("A12G G13A C61G")
"< 1e-05 s⁻¹"
>>> meas_value("G35U U69C")
"< 1e-05 s⁻¹"
>>> meas_value("C11G G32C G38A A42C G60C")
"< 1e-05 s⁻¹"
>>> meas_value("U54A C70U")
"0.00148 s⁻¹"
>>> meas_value("C34A G41C A53G U54A U56G")
"< 1e-05 s⁻¹"
>>> meas_value("U46C C50U")
"< 1e-05 s⁻¹"
>>> meas_value("C16G U47A")
"6.21e-05 s⁻¹"
>>> meas_value("G37U U69A")
"< 1e-05 s⁻¹"
>>> meas_value("A15G U47C")
"0.000151 s⁻¹"
>>> meas_value("U56G G59A C68A")
"< 1e-05 s⁻¹"
>>> meas_value("U55C C70A")
"< 1e-05 s⁻¹"
>>> meas_value("C8U A33U G66C")
"< 1e-05 s⁻¹"
>>> meas_value("C11A C70U")
"2.69e-05 s⁻¹"
>>> meas_value("A14C C34U G60U")
"< 1e-05 s⁻¹"
>>> meas_value("A12C C58U G63U")
"< 1e-05 s⁻¹"
>>> meas_value("U31C")
"0.000168 s⁻¹"
>>> meas_value("U30A A33U")
"< 1e-05 s⁻¹"
>>> meas_value("A39U A42G U56G A64C")
"< 1e-05 s⁻¹"
>>> meas_value("G40U U56A")
"6.75e-05 s⁻¹"
>>> meas_value("C10G G63C")
"< 1e-05 s⁻¹"
>>> meas_value("G40A C70A")
"2.59e-05 s⁻¹"
>>> meas_value("C10A C70G")
"2.53e-05 s⁻¹"
>>> meas_value("G41U C58G")
"< 1e-05 s⁻¹"
>>> meas_value("G32C U56C")
"< 1e-05 s⁻¹"
>>> meas_value("A33U G38U G40U")
"< 1e-05 s⁻¹"
>>> meas_value("A33U A39U G44C G63C C67G")
"< 1e-05 s⁻¹"
